Test system: Haemophilus influenzae RD
testMethodNotes: MIC, standard broth micro-dilution assay, HFRD
Format: cell-based
Procedure: The antibacterial efficacy of the present compounds is illustrated by Table III. The minimal inhibitory concentrations (MICs) were determined using a standard broth micro-dilution assay.
endpoint: minimal inhibitory concentration (MIC), HFRD

Reference set, count: 5
compound | experimentalResult
CCCCCCNC(CC(C)C)C(=O)NC1C(=O)NC(CC(N)=O)C(=O)NC2C(=O)NC3C(=O)NC(C(=O)NC(C(=O)O)c4cc(O)cc(O)c4-c4cc3ccc4O)C(OC3CC(C)(N)C(O)C(C)O3)c3ccc(c(Cl)c3)Oc3cc2cc(c3OC2OC(CO)C(O)C(O)C2OC2CC(C)(N)C(O)C(C)O2)Oc2ccc(cc2Cl)C1O (stereo not drawn) [Example 39] | no
CC1OC(OC2c3ccc(c(Cl)c3)Oc3cc4cc(c3OC3OC(CO)C(O)C(O)C3OC3CC(C)(NCc5ccc(-c6ccccc6)cc5)C(O)C(C)O3)Oc3ccc(cc3Cl)C(O)C(NC(=O)C(N)Cc3ccc(Cl)cc3)C(=O)NC(CC(N)=O)C(=O)NC4C(=O)NC3C(=O)NC2C(=O)NC(C(=O)O)c2cc(O)cc(O)c2-c2cc3ccc2O)CC(C)(N)C1O (stereo not drawn) [Example 33] | >64
CC1OC(OC2c3ccc(c(Cl)c3)Oc3cc4cc(c3OC3OC(CO)C(O)C(O)C3OC3CC(C)(NCc5ccc(-c6ccccc6)cc5)C(O)C(C)O3)Oc3ccc(cc3Cl)C(O)C(NC(=O)C(CCCCNC(=O)OC(C)(C)C)NC(=O)OC(C)(C)C)C(=O)NC(CC(N)=O)C(=O)NC4C(=O)NC3C(=O)NC2C(=O)NC(C(=O)O)c2cc(O)cc(O)c2-c2cc3ccc2O)CC(C)(N)C1O (stereo not drawn) [Example 19] | >64
CSCCC(NC(=O)OC(C)(C)C)C(=O)NC1C(=O)NC(CC(N)=O)C(=O)NC2C(=O)NC3C(=O)NC(C(=O)NC(C(=O)O)c4cc(O)cc(O)c4-c4cc3ccc4O)C(OC3CC(C)(N)C(O)C(C)O3)c3ccc(c(Cl)c3)Oc3cc2cc(c3OC2OC(CO)C(O)C(O)C2OC2CC(C)(NCc3ccc(-c4ccccc4)cc3)C(O)C(C)O2)Oc2ccc(cc2Cl)C1O (stereo not drawn) [Example 15] | >64
CC(C)CCC(=O)N[C@H]1C(=O)N[C@@H](CC(N)=O)C(=O)N[C@H]2C(=O)N[C@H]3C(=O)NC(C(=O)N[C@H](C(=O)O)c4cc(O)cc(O)c4-c4cc3ccc4O)[C@H](OC3CC(C)(N)C(O)C(C)O3)c3ccc(c(Cl)c3)Oc3cc2cc(c3OC2OC(CO)C(O)C(O)C2OC2CC(C)(N)C(O)C(C)O2)Oc2ccc(cc2Cl)[C@H]1O (stereo partly drawn) [Example 4] | >64

Next compound, please.
Ask: Fill blank: measured minimal inhibitory concentration (MIC), HFRD of the compound CCCCCCNC(CC(C)C)C(=O)NC1C(=O)NC(CC(N)=O)C(=O)NC2C(=O)NC3C(=O)NC(C(=O)NC(C(=O)O)c4cc(O)cc(O)c4-c4cc3ccc4O)C(OC3CC(C)(N)C(O)C(C)O3)c3ccc(c(Cl)c3)Oc3cc2cc(c3OC2OC(CO)C(O)C(O)C2OC2CC(C)(NCCCCCC)C(O)C(C)O2)Oc2ccc(cc2Cl)C1O (stereo not drawn) [Example 38] is ____.
Result: no

Where do the numbers come from? From patent US6670446B1.
